assay: LC-MS stability of compound with glutathione in PBS buffer at 37 °C; assay type: physicochemical; conditions: pH 7.5, with glutathione, after 18 hours incubation time, read-out: compound remains unreacted
measured_property: remaining at 18 h

Data request: Entry CCC(C)(C)c1cc(NCC(=O)N2CCN(C(=O)c3cnc(Cl)nc3)CC2)c(O)cc1Cl has what remaining at 18 h?
Data returned: ~50%
